- SYSTEM UNDER TEST: [Pyruvate dehydrogenase (acetyl-transferring)] kinase isozyme 2, mitochondrial (Homo sapiens, UniProt Q15119)
- PROTOCOL NOTES: Inhibition of PDK2 (unknown origin) using PDCE1 as substrate at 5 uM incubated for 30 mins by kinase-Glo reagent based luminescence assay relative to control
The source made the active and inactive calls. The calls are words filed in the database; no cut-off is given here.
MEASUREMENT TYPE: inhibition

Worked cases, answers included:
| COMPOUND | inhibition |
| --- | --- |
| Cc1cc(=O)n2nc(N3CCN(C(=O)Cc4c[nH]c5ccccc45)CC3)nc2[nH]1 | inactive |
| CSc1nc(N2CCOCC2)c2cnn(CCNC(=O)C3CCCC3)c2n1 | inactive |
| CN(C)c1cncc(OC2CCN(C(=O)Cc3c[nH]c4ccccc34)C2)n1 (stereo not given) | inactive |
| CNC(=O)COc1coc(CN2CCN(c3ccccc3)CC2)cc1=O | 54.1% |

Now turn to the next compound.
Prompt line: What inhibition value was documented for this compound, Cc1ccccc1OCC(O)Cn1c(C2CC(=O)N(C(C)(C)C)C2)nc2ccccc21 (stereo not given) ?
Response line: inactive

----------
- System: SAOS-2
- PROTOCOL NOTES: Antiproliferative activity against human Saos2 cells assessed as reduction in cell viability incubated for 72 hrs by MTT assay
- Assay type: functional, cell-based
- CONDITION INFO: SAOS-2, 72 h
MEASUREMENT TYPE: pIC50
Answers are plain numbers, as −log10 of the molar value.

Worked cases, answers included:
| MOLECULE | SYSTEM UNDER TEST | VALUE MEASURED |
| --- | --- | --- |
| CC(C)NC(=O)COc1coc(CN2CCN(c3ccccc3F)CC2)cc1=O | SAOS-2 | 5.25 |
| CNC(=O)COc1coc(CN2CCN(c3ccccc3)CC2)cc1=O | SAOS-2 | 5.17 |
| CN(C)c1cncc(OC2CCN(C(=O)Cc3c[nH]c4ccccc34)C2)n1 (stereo not given) | SAOS-2 | 5.66 |

Now turn to the next molecule.
Prompt line: What pIC50 value was documented for this molecule, CC(C)NC(=O)COc1coc(CN2CCN(c3ccccc3)CC2)cc1=O ?
Response line: 5.28

Values were extracted from ChEMBL document CHEMBL4396967.
